Molecular target: APJ (Homo sapiens, UniProt P35414)
Construct: expressed in transfected cells; host or cells: CHO (CHO-A10; clone 6 for the cAMP assay)
Sequence (P35414 whole entry): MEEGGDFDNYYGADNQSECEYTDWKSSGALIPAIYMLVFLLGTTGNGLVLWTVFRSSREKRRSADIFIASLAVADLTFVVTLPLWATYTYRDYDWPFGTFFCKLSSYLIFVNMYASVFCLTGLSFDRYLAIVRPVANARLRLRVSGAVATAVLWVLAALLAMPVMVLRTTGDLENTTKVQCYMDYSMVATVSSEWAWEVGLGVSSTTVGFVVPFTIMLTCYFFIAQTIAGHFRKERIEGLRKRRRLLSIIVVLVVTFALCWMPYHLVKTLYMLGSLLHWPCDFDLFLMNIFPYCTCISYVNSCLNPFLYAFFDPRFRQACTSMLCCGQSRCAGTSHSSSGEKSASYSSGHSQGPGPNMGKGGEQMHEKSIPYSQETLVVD
Test: Receptor binding assay-2 (compound in Reference Example 2 used)
Settings: compound in Reference Example 2 used as ligand; read-out: IC50
Starred links: 1 amine or outer side, 2 acyl side, 3 side chain; linkers in the order of their positions; H or OH if unused. Non-standard residues stand in square brackets, D forms with d. Residues, ends and D or L forms follow the SMILES beside them. *: point of attachment. Phe(4-Cl) = N[C@@H](Cc1ccc(Cl)cc1)C(=O)O; Adipoyl = O=C(CCCCC(=O)[*:2])[*:1]; Cha = N[C@@H](CC1CCCCC1)C(=O)O; Morpholide = C1CN(*)CCO1; Dap = NC[C@H](N)C(=O)O
Threshold check on IC50: strictly below 0.1 nM is fulfilled; on or above 0.1 nM is not fulfilled.

* CC(C)C[C@H](NC(=O)[C@H](CCCNC(=N)N)NC(=O)[C@@H]1CCCN1C(=O)[C@H](CCCNC(=N)N)NC(=O)[C@H](CCC(N)=O)NC(=O)[C@H](CCCNC(=N)N)NC(=O)[C@@H](N)CCCNC(=N)N)C(=O)N[C@@H](CO)C(=O)N[C@@H](C)C(=O)N[C@@H](CCCNC(=N)N)C(=O)NCC(=O)N1CCC[C@H]1C(=O)O [Compound in Ex. 19] | fulfilled
* CSCC[C@H](NC(=O)[C@@H]1CCCN1C(=O)CNC(=O)[C@H](CCCCN)NC(=O)[C@H](Cc1c[nH]cn1)NC(=O)[C@H](CO)NC(=O)[C@H](CC(C)C)NC(=O)[C@H](CCCNC(=N)N)NC(=O)[C@@H]1CCCN1C(=O)[C@@H](N)CCCNC(=N)N)C(=O)N[C@@H](Cc1ccc(Cl)cc1)C(=O)O [Compound in Ex. 28] (H-RPRLSHKGPM[Phe(4-Cl)]-OH; N-terminus and C-terminus assumed) | not fulfilled
* CC(C)C[C@H](NC(=O)[C@H](CCCNC(=N)N)NC(=O)[C@@H]1CCCN1C(=O)[C@@H](N)CCCNC(=N)N)C(=O)N[C@@H](CO)C(=O)N[C@@H](CN)C(=O)N[C@@H](CCCNC(=N)N)C(=O)NCC(=O)N1CCC[C@H]1C(=O)N[C@@H](CC1CCCCC1)C(=O)N1CCC[C@H]1C(=O)N[C@@H](Cc1ccc(Cl)cc1)C(=O)O [Compound in Ex. 65] (H-RPRLS[Dap]RGP[Cha]P[Phe(4-Cl)]-OH) | not fulfilled
* CC(C)C[C@H](NC(=O)[C@H](CCCNC(=N)N)NC(=O)[C@@H]1CCCN1C(=O)[C@H](CCCNC(=N)N)NC(=O)[C@H](CCC(N)=O)NC(=O)[C@H](CCCNC(=N)N)NC(=O)[C@@H](N)CCCNC(=N)N)C(=O)N[C@@H](CO)C(=O)N[C@@H](Cc1c[nH]cn1)C(=O)N[C@@H](CCCCN)C(=O)NCC(=O)N1CCC[C@H]1C(=O)N[C@@H](CC1CCCCC1)C(=O)N1CCC[C@H]1C(=O)N[C@@H](Cc1ccc(Cl)cc1)C(=O)O [Compound in Ex. 2] | not fulfilled
* CC(C)C[C@H](NC(=O)[C@H](CCCNC(=N)N)NC(=O)[C@@H]1CCCN1C(=O)[C@H](CCCNC(=N)N)NC(=O)[C@H](CCC(N)=O)NC(=O)[C@H](CCCNC(=N)N)NC(=O)[C@@H](N)CCCNC(=N)N)C(=O)N[C@@H](CO)C(=O)N[C@@H](C)C(=O)N[C@@H](CCCNC(=N)N)C(=O)NCC(=O)N1CCOCC1 [Compound in Ex. 52] (H-RRQRPRLSARG-Morpholide; N-terminus assumed) | not fulfilled
* CC(C)C[C@H](NC(=O)[C@H](CCCNC(=N)N)NC(=O)[C@@H]1CCCN1C(=O)[C@@H](N)CCCNC(=N)N)C(=O)N[C@@H](CO)C(=O)N[C@@H](CNC(=O)CCCCC(=O)O)C(=O)N[C@@H](CCCNC(=N)N)C(=O)NCC(=O)N1CCC[C@H]1C(=O)N[C@@H](CC1CCCCC1)C(=O)N1CCC[C@H]1C(=O)N[C@@H](Cc1ccc(Cl)cc1)C(=O)O [Compound in Ex. 68] (H-RPRLS[Dap](Adipoyl)RGP[Cha]P[Phe(4-Cl)]-OH; N-terminus and C-terminus assumed) | not fulfilled
* CCCC[C@H](NC(=O)[C@@H]1CCCN1C(=O)CNC(=O)[C@H](CCCCN)NC(=O)[C@H](Cc1c[nH]cn1)NC(=O)[C@H](CO)NC(=O)[C@H](CC(C)C)NC(=O)[C@H](CCCNC(=N)N)NC(=O)[C@@H]1CCCN1C(=O)[C@H](CCCNC(=N)N)NC(=O)[C@H](CCC(N)=O)NC(=O)[C@H](CCCNC(=N)N)NC(=O)[C@@H](N)CCCNC(=N)N)C(=O)N1CCC[C@H]1C(=O)N[C@@H](Cc1ccc(O)cc1)C(=O)O [Compound in Ex. 14] | fulfilled
* CC(C)C[C@H](NC(=O)[C@H](CCCNC(=N)N)NC(=O)[C@@H]1CCCN1C(=O)[C@@H](N)CCCNC(=N)N)C(=O)N[C@@H](CO)C(=O)N[C@@H](Cc1c[nH]cn1)C(=O)N[C@@H](CCCCN)C(=O)NCC(=O)N1CCC[C@H]1C(=O)N[C@@H](CC1CCCCC1)C(=O)N1CCC[C@H]1C(=O)N[C@@H](Cc1ccc(Cl)cc1)C(=O)O [Compound in Ex. 7] | not fulfilled
* CSCC[C@H](NC(=O)[C@@H]1CCCN1C(=O)CNC(=O)[C@H](CCCCN)NC(=O)[C@H](Cc1c[nH]cn1)NC(=O)[C@H](CO)NC(=O)[C@H](CC(C)C)NC(=O)[C@H](CCCNC(=N)N)NC(=O)[C@@H]1CCCN1C(=O)[C@H](CCCNC(=N)N)NC(=O)[C@H](CCCCN)NC(=O)[C@H](CCCNC(=N)N)NC(=O)[C@@H](N)CCCNC(=N)N)C(=O)N1CCC[C@H]1C(=O)N[C@@H](Cc1ccccc1)C(=O)O [Compound in Ex. 23] | fulfilled
